Please respond with reported efflux ratio for every item in the list.
Assay: Efflux ratio of permeability in human Caco-2 cells
Assay type: ADME, cell-based
// no unit, no text: just the number

Sample `CN1C[C@@H](F)CCN(C)[C@H]2CC[C@@H](C2)Nc2ncc(C(F)(F)F)c(n2)-c2c[nH]c3c(P(C)(C)=O)c(ccc23)C1=O` ; efflux ratio observed: 11.2

Sample `CN1CCCCO[C@H]2CC[C@@H](C2)Nc2ncc(C(F)(F)F)c(n2)-c2c[nH]c3c(P(C)(C)=O)c(ccc23)C1=O` ; efflux ratio observed: 1.1

Sample `CN1C[C@H](F)CCN(C)[C@H]2CC[C@@H](C2)Nc2ncc(C(F)(F)F)c(n2)-c2c[nH]c3c(P(C)(C)=O)c(ccc23)C1=O` ; efflux ratio observed: 22.3

Sample `CN1CCCCN(C)[C@H]2CC[C@@H](C2)Nc2ncc(C(F)(F)F)c(n2)-c2c[nH]c3c(P(C)(C)=O)c(ccc23)C1=O` ; efflux ratio observed: 19.2

Sample `CN1CCOCCN(C)[C@H]2CC[C@@H](C2)Nc2ncc(C(F)(F)F)c(n2)-c2c[nH]c3c(P(C)(C)=O)c(ccc23)C1=O` ; efflux ratio observed: 32.5
